viability, T/C by entry:
# Tested on: 817829-284-R-J1-PDC complex spheroids, viability
# measurementProtocol: Anticancer human tumor 817829-284-R-J1-PDC patient-derived colon adenocarcinoma cell line growth inhibition [GQUAD]
# testConditions: second compound 0.0316 µM; first compound 0.0316 µM; stronger effect = lower value
measuredProperty: viability, T/C (%)

>>> recordedmeasurement("CC(C)(O)C1CCC(Nc2ccc3ncc(-c4cccc(C(F)(F)F)c4)n3n2)CC1 (stereo unspecified) + Cc1cnc(CNC(=O)c2c(=O)c3ccc(N4CCCN(C)CC4)nc3n3c2sc2ccccc23)cn1")
63.1
>>> recordedmeasurement("Cc1cccc(N(C)C(=O)C2C(O)CCN2c2nc(C)cc(C(F)(F)F)c2C#N)c1 (stereo unspecified) + Cc1cnc(CNC(=O)c2c(=O)c3ccc(N4CCCN(C)CC4)nc3n3c2sc2ccccc23)cn1")
85.6
>>> recordedmeasurement("O=c1[nH]cc(F)c(=O)[nH]1 + Cc1[nH]c2ccc(F)cc2c1-c1nc2c3cccnc3c3ncccc3c2[nH]1")
113
>>> recordedmeasurement("CCCS(=O)(=O)Nc1ccc(F)c(C(=O)c2c[nH]c3ncc(-c4ccc(Cl)cc4)cc23)c1F + Cc1[nH]c2ccc(F)cc2c1-c1nc2c3cccnc3c3ncccc3c2[nH]1")
107
>>> recordedmeasurement("CC(C)(O)C1CCC(Nc2ccc3ncc(-c4cccc(C(F)(F)F)c4)n3n2)CC1 (stereo unspecified) + CN(C)c1ccc(Nc2c3ccc(NC(=O)CCN4CCCC4)cc3nc3cc(NC(=O)CCN4CCCC4)ccc23)cc1")
102
>>> recordedmeasurement("Cc1[nH]c2ccccc2c1CCNCc1ccc(/C=C/C(=O)NO)cc1 + Cc1cnc(CNC(=O)c2c(=O)c3ccc(N4CCCN(C)CC4)nc3n3c2sc2ccccc23)cn1")
17.7

====

# Test system: 817829-284-R-J1-PDC complex spheroids, viability
# measurementProtocol: Anticancer human tumor 817829-284-R-J1-PDC cell line growth inhibition [GQUAD];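 further: spheroids exposed to agents for 7 days before readout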
# testConditions: curve of first compound; second compound 10 µM
measuredProperty: IC50

>>> recordedmeasurement("CC1COCCN1c1cc(C2(O)CC3CCC(C2)O3)c2cnn(-c3ccn[nH]3)c2n1 (stereo unspecified) + Cc1cnc(CNC(=O)c2c(=O)c3ccc(N4CCCN(C)CC4)nc3n3c2sc2ccccc23)cn1")
"< 31.6 nM"
>>> recordedmeasurement("O=C(c1cc(Cc2n[nH]c(=O)c3ccccc23)ccc1F)N1CCN(C(=O)C2CC2)CC1 + Cc1cnc(CNC(=O)c2c(=O)c3ccc(N4CCCN(C)CC4)nc3n3c2sc2ccccc23)cn1")
"< 31.6 nM"
>>> recordedmeasurement("O=C(NO)c1cnc(N2CCN(S(=O)(=O)c3ccc4ccccc4c3)CC2)nc1 + Cc1[nH]c2ccc(F)cc2c1-c1nc2c3cccnc3c3ncccc3c2[nH]1")
"< 31.6 nM"
>>> recordedmeasurement("CC1COCCN1c1cc(C2(O)CC3CCC(C2)O3)c2cnn(-c3ccn[nH]3)c2n1 (stereo unspecified) + CN(C)c1ccc(Nc2c3ccc(NC(=O)CCN4CCCC4)cc3nc3cc(NC(=O)CCN4CCCC4)ccc23)cc1")
"< 31.6 nM"
>>> recordedmeasurement("O=c1[nH]cc(F)c(=O)[nH]1 + Cc1cnc(CNC(=O)c2c(=O)c3ccc(N4CCCN(C)CC4)nc3n3c2sc2ccccc23)cn1")
"< 31.6 nM"
>>> recordedmeasurement("Nc1ccn(C2OC(CO)C(O)C2(F)F)c(=O)n1 (stereo unspecified) + Cc1cnc(CNC(=O)c2c(=O)c3ccc(N4CCCN(C)CC4)nc3n3c2sc2ccccc23)cn1")
"< 31.6 nM"
>>> recordedmeasurement("CCc1c2c(nc3ccc(O)cc13)-c1cc3c(c(=O)n1C2)COC(=O)[C@]3(O)CC + CN(C)c1ccc(Nc2c3ccc(NC(=O)CCN4CCCC4)cc3nc3cc(NC(=O)CCN4CCCC4)ccc23)cc1")
"2.02 nM"
>>> recordedmeasurement("CC(C)n1c(=O)n(C)c2cnc3cc(F)c(-c4ccc(OCCCN5CCCCC5)nc4)cc3c21 + Cc1[nH]c2ccc(F)cc2c1-c1nc2c3cccnc3c3ncccc3c2[nH]1")
"549 nM"
>>> recordedmeasurement("Cn1ncnc1[C@H]1c2n[nH]c(=O)c3cc(F)cc(c23)N[C@@H]1c1ccc(F)cc1 + Cc1[nH]c2ccc(F)cc2c1-c1nc2c3cccnc3c3ncccc3c2[nH]1")
"79.9 nM"
>>> recordedmeasurement("C=CC(=O)N1CCN(c2nc(=O)n(-c3c(C)ccnc3C(C)C)c3nc(-c4c(O)cccc4F)c(F)cc23)C(C)C1 (stereo unspecified) + Cc1cnc(CNC(=O)c2c(=O)c3ccc(N4CCCN(C)CC4)nc3n3c2sc2ccccc23)cn1")
"< 31.6 nM"
>>> recordedmeasurement("Nc1ccn(C2OC(CO)C(O)C2(F)F)c(=O)n1 (stereo unspecified) + CN(C)c1ccc(Nc2c3ccc(NC(=O)CCN4CCCC4)cc3nc3cc(NC(=O)CCN4CCCC4)ccc23)cc1")
"< 31.6 nM"

====

# Test system: 817829-284-R-J1-PDC complex spheroids, viability
# measurementProtocol: Anticancer human tumor 817829-284-R-J1-PDC cell line growth inhibition [GQUAD];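 further: spheroids exposed to agents for 7 days before readout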;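 on viability, T/C: percent viability relative to DMSO vehicle control taken as 100%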
# testConditions: second compound 3.16 µM; first compound 0.0316 µM; stronger effect = lower value
Lab note - cut at 20% for viability, T/C: Yes if strictly below, No if not.

>>> group("CCc1c2c(nc3ccc(O)cc13)-c1cc3c(c(=O)n1C2)COC(=O)[C@]3(O)CC + CN(C)c1ccc(Nc2c3ccc(NC(=O)CCN4CCCC4)cc3nc3cc(NC(=O)CCN4CCCC4)ccc23)cc1")
"No"
>>> group("CC(C)n1c(=O)n(C)c2cnc3cc(F)c(-c4ccc(OCCCN5CCCCC5)nc4)cc3c21 + Cc1cnc(CNC(=O)c2c(=O)c3ccc(N4CCCN(C)CC4)nc3n3c2sc2ccccc23)cn1")
"Yes"
>>> group("COc1cccc2c1C(=O)c1c(O)c3c(c(O)c1C2=O)CC(O)(C(=O)CO)CC3OC1CC(N)C(O)C(C)O1 (stereo not drawn) + Cc1[nH]c2ccc(F)cc2c1-c1nc2c3cccnc3c3ncccc3c2[nH]1")
"No"
>>> group("CC(=O)O[C@H]1C(=O)[C@@]2(C)[C@H]([C@H](OC(=O)c3ccccc3)[C@]3(O)C[C@H](OC(=O)[C@H](O)[C@@H](NC(=O)c4ccccc4)c4ccccc4)C(C)=C1C3(C)C)[C@]1(OC(C)=O)CO[C@@H]1C[C@@H]2O + Cc1[nH]c2ccc(F)cc2c1-c1nc2c3cccnc3c3ncccc3c2[nH]1")
"Yes"
>>> group("COc1cccc2c1C(=O)c1c(O)c3c(c(O)c1C2=O)CC(O)(C(=O)CO)CC3OC1CC(N)C(O)C(C)O1 (stereo not drawn) + Cc1cnc(CNC(=O)c2c(=O)c3ccc(N4CCCN(C)CC4)nc3n3c2sc2ccccc23)cn1")
"Yes"
>>> group("CC1COCCN1c1cc(C2(S(C)(=N)=O)CC2)nc(-c2ccnc3[nH]ccc23)n1 (stereo not drawn) + Cc1[nH]c2ccc(F)cc2c1-c1nc2c3cccnc3c3ncccc3c2[nH]1")
"No"
>>> group("CC1COCCN1c1cc(C2(O)CC3CCC(C2)O3)c2cnn(-c3ccn[nH]3)c2n1 (stereo not drawn) + Cc1cnc(CNC(=O)c2c(=O)c3ccc(N4CCCN(C)CC4)nc3n3c2sc2ccccc23)cn1")
"Yes"
>>> group("CC1COCCN1c1cc(-c2ccnn2C)c2ccnc(-c3ccn[nH]3)c2n1 (stereo not drawn) + Cc1[nH]c2ccc(F)cc2c1-c1nc2c3cccnc3c3ncccc3c2[nH]1")
"No"
>>> group("O=C(c1cc(Cc2n[nH]c(=O)c3ccccc23)ccc1F)N1CCN(C(=O)C2CC2)CC1 + Cc1cnc(CNC(=O)c2c(=O)c3ccc(N4CCCN(C)CC4)nc3n3c2sc2ccccc23)cn1")
"Yes"
>>> group("C=CC(=O)N1CCN(c2nc(=O)n(-c3c(C)ccnc3C(C)C)c3nc(-c4c(O)cccc4F)c(F)cc23)C(C)C1 (stereo not drawn) + CN(C)c1ccc(Nc2c3ccc(NC(=O)CCN4CCCC4)cc3nc3cc(NC(=O)CCN4CCCC4)ccc23)cc1")
"No"
>>> group("Cc1cccc(N(C)C(=O)C2C(O)CCN2c2nc(C)cc(C(F)(F)F)c2C#N)c1 (stereo not drawn) + CN(C)c1ccc(Nc2c3ccc(NC(=O)CCN4CCCC4)cc3nc3cc(NC(=O)CCN4CCCC4)ccc23)cc1")
"No"
>>> group("CC(C)(O)C1CCC(Nc2ccc3ncc(-c4cccc(C(F)(F)F)c4)n3n2)CC1 (stereo not drawn) + Cc1cnc(CNC(=O)c2c(=O)c3ccc(N4CCCN(C)CC4)nc3n3c2sc2ccccc23)cn1")
"No"
>>> group("CCCS(=O)(=O)Nc1ccc(F)c(C(=O)c2c[nH]c3ncc(-c4ccc(Cl)cc4)cc23)c1F + CN(C)c1ccc(Nc2c3ccc(NC(=O)CCN4CCCC4)cc3nc3cc(NC(=O)CCN4CCCC4)ccc23)cc1")
"No"
>>> group("CC1COCCN1c1cc(C2(S(C)(=N)=O)CC2)nc(-c2ccnc3[nH]ccc23)n1 (stereo not drawn) + CN(C)c1ccc(Nc2c3ccc(NC(=O)CCN4CCCC4)cc3nc3cc(NC(=O)CCN4CCCC4)ccc23)cc1")
"No"
>>> group("O=c1[nH]cc(F)c(=O)[nH]1 + CN(C)c1ccc(Nc2c3ccc(NC(=O)CCN4CCCC4)cc3nc3cc(NC(=O)CCN4CCCC4)ccc23)cc1")
"No"
>>> group("O=C(NO)c1cnc(N2CCN(S(=O)(=O)c3ccc4ccccc4c3)CC2)nc1 + Cc1[nH]c2ccc(F)cc2c1-c1nc2c3cccnc3c3ncccc3c2[nH]1")
"Yes"
>>> group("COc1cc(C2c3cc4c(cc3C(OC3OC5COC(C)OC5C(O)C3O)C3COC(=O)C23)OCO4)cc(OC)c1O (stereo not drawn) + CN(C)c1ccc(Nc2c3ccc(NC(=O)CCN4CCCC4)cc3nc3cc(NC(=O)CCN4CCCC4)ccc23)cc1")
"No"
>>> group("Cc1[nH]c2ccccc2c1CCNCc1ccc(/C=C/C(=O)NO)cc1 + CN(C)c1ccc(Nc2c3ccc(NC(=O)CCN4CCCC4)cc3nc3cc(NC(=O)CCN4CCCC4)ccc23)cc1")
"No"
